A collection of molecules and their measured IC50
Target: PI3K δ (Homo sapiens, UniProt O00329)
Construct: purchased Upstate / Millipore Corporation
Sequence (O00329 whole entry): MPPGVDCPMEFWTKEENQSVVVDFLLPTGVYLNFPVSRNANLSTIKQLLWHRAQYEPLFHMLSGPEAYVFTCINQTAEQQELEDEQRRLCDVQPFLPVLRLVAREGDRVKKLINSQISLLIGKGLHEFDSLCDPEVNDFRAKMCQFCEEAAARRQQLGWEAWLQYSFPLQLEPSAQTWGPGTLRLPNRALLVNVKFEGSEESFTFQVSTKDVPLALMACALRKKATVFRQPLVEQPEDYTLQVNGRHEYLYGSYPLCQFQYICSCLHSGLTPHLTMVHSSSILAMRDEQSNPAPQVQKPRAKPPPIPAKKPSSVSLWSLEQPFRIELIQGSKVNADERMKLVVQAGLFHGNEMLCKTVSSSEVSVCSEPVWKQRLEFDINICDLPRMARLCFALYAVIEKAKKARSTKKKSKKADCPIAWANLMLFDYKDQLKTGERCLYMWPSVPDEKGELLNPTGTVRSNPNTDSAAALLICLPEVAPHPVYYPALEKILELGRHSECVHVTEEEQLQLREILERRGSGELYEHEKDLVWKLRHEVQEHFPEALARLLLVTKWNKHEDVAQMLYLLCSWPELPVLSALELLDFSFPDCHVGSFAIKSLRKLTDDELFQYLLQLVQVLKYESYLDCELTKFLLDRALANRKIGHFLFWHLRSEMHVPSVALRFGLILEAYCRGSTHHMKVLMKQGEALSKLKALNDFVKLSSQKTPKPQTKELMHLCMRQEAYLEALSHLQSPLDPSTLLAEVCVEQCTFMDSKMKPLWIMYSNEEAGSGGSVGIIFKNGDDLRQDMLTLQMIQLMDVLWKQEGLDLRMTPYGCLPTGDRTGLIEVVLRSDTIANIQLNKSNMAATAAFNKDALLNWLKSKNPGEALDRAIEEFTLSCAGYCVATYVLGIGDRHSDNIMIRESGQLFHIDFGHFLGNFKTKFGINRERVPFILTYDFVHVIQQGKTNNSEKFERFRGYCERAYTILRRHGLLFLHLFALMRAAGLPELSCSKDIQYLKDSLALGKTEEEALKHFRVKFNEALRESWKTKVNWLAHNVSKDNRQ
Sequence (P27986 whole entry partner): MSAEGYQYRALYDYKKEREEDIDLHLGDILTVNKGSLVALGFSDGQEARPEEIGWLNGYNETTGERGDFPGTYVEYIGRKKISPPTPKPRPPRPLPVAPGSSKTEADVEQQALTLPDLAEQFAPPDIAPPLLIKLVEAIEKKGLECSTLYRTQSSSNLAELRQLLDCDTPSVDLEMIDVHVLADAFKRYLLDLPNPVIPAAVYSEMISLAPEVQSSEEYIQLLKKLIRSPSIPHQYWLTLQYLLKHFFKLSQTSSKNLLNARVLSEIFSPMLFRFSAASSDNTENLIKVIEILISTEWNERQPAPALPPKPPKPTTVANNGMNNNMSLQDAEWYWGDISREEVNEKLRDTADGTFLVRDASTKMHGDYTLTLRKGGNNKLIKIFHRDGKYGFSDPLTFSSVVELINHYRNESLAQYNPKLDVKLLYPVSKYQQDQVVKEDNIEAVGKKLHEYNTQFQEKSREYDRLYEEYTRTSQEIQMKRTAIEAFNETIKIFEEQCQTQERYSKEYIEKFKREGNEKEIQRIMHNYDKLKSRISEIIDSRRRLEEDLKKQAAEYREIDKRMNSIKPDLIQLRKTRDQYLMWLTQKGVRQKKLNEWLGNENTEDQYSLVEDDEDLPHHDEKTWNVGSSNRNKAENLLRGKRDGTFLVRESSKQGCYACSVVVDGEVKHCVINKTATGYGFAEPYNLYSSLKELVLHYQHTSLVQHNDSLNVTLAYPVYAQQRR
Experiment: PI 3-Kinase (human) HTRF assay, PI3K δ
Type: biochemical
Details: read-out: PI3K δ IC50

Query :: // IC50 lookup, key: CS(=O)(=O)N1CCN(C2CN(c3cnc4ccc(-c5ccc6oc(N)nc6c5)cc4n3)C2)CC1 [Compound 328]
Result :: < 10 µM

Query :: Please do the same for Nc1nc2cc(-c3ccc4ncc(C(=O)NCCN5CCCC5)n4c3)ccc2o1 [Compound 296] as well.
Result :: < 1 µM

Query :: Please do the same for Nc1nc2cc(-c3ccc4ncc(C#CC5CC5)n4c3)ccc2o1 [Compound 39] as well.
Result :: < 0.1 µM

Query :: Please do the same for O=C(c1cnc2ccc(-c3cccc(NS(=O)(=O)c4ccccc4)c3)cn12)N1CCOCC1 [Compound 453] as well.
Result :: > 10 µM

Query :: Please do the same for C[C@H]1CN(c2cnc3ccc(-c4cccc5c(N)nsc45)cc3n2)CCN1 [Compound 321] as well.
Result :: > 10 µM

Query :: Please do the same for Nc1nc2cc(-c3ccc4ncc(-c5ccncc5)nc4c3)ccc2o1 [Compound 71] as well.
Result :: < 1 µM

Query :: Please do the same for Nc1nc2cc(-c3ccc4ncc(C(=O)N5CCOCC5)n4c3)c(F)cc2o1 [Compound 372] as well.
Result :: < 10 µM

Query :: Please do the same for Nc1nc2ccc(-c3ccc4nnc(-c5ccncc5)n4c3)cc2o1 [Compound 230] as well.
Result :: < 10 µM

Query :: Please do the same for Nc1ccc2cc(-c3ccc4nccc(-c5ccncc5)c4c3)ccc2n1 [Compound 5] as well.
Result :: < 10 µM
